- System: Yap1 mRNA
- procedure_summary: Antisense inhibition of human Yap1 in SNU-449 cells by modified oligonucleotides, single dose (Example 5, RTS36584)
- Format: cell-based
- condition_description: Table 45; Yap1 mRNA as percent of untreated control, SNU-449 cells, single dose
Strand notation (5' to 3'): a small letter for the sugar, then the base; units joined by * are phosphorothioate-linked, units joined directly phosphodiester-linked; [ ] holds rarer units or linkages, { } end groups; capitals alone tell only the bases. k = constrained ethyl (cEt); [5mC] = 5-methylcytosine; d = 2'-deoxy (DNA)
Please go through the items and note down their YAP1 (% UTC).
Field format: number, assumed % UTC, no unit text.

Record 1198930 (kA*kT*dA*dG*dT*dG*d[5mC]*dT*dT*dT*dG*kG*dA*kA*dG*kA; antisense) [Compound 1198930] , field YAP1 (% UTC): 68

Record 1198914 (kT*kT*dT*dT*dA*d[5mC]*dA*dT*dT*dA*dG*kG*dA*kA*d[5mC]*kA; antisense) [Compound 1198914] , field YAP1 (% UTC): 68

Record 1198960 (kA*kA*dG*dT*dG*dT*dA*dT*dG*dT*d[5mC]*kA*dG*kA*dA*kG; antisense) [Compound 1198960] , field YAP1 (% UTC): 6

---

- System: Yap1 mRNA
- procedure_summary: Dose-dependent inhibition of human Yap1 in SNU-449 cells (Example 9, RTS36584)
- Type: cell-based
- condition_description: free uptake, linear regression on a log/linear plot
pIC50: −log10 of the molar value. Strand notation (5' to 3'): a small letter for the sugar, then the base; units joined by * are phosphorothioate-linked, units joined directly phosphodiester-linked; [ ] holds rarer units or linkages, { } end groups; capitals alone tell only the bases. e = 2'-O-(2-methoxyethyl) (MOE); k = constrained ethyl (cEt); [5mC] = 5-methylcytosine; d = 2'-deoxy (DNA); m = 2'-O-methyl
Give Met when the value for pIC50 is at least 7. Give Not met when it is less.

Exercise: Entry 1200803 (kG*kG*kT*dA*dT*mA*dA*d[5mC]*dT*dG*dG*dG*d[5mC]*kA*kA*kA; antisense) [compound 1200803] : is its pIC50 no less than 7?
Solution: Not met

Exercise: Entry 1198353 (kA*kG*kT*dG*dT*dA*dT*dG*dT*d[5mC]*dA*dG*kA*eA*kG*eA; antisense) [compound 1198353] : is its pIC50 no less than 7?
Solution: Met

Exercise: Entry 1198815 (kT*kA*dG*dA*dG*dT*dA*dT*dG*dT*dG*kG*e[5mC]*kA*eA*kT; antisense) [compound 1198815] : is its pIC50 no less than 7?
Solution: Not met

Exercise: Entry 1198550 (kA*kT*kA*dT*dG*dG*dA*dA*dA*dT*dT*dG*kT*k[5mC]*kT*e[5mC]) [compound 1198550] : is its pIC50 no less than 7?
Solution: Not met

Exercise: Entry 1198673 (kG*kA*dT*dT*dT*dA*dG*dG*dA*dT*dG*d[5mC]*kA*eT*kG*eG; antisense) [compound 1198673] : is its pIC50 no less than 7?
Solution: Met

Exercise: Entry 1198877 (kT*kT*dA*dA*dA*dG*dT*dG*dT*dA*dT*kG*eT*k[5mC]*eA*kG; antisense) [compound 1198877] : is its pIC50 no less than 7?
Solution: Met

Exercise: Entry 1198294 (kA*kG*kA*dG*dT*dA*dT*dG*dT*dG*dG*d[5mC]*kA*eA*kT*eA; antisense) [compound 1198294] : is its pIC50 no less than 7?
Solution: Met

Exercise: Entry 1198696 (kT*kG*dT*dA*dT*dG*dT*d[5mC]*dA*dG*dA*dA*kG*eA*kG*eT) [compound 1198696] : is its pIC50 no less than 7?
Solution: Met

Exercise: Entry 1198698 (kA*kA*dG*dT*dG*dT*dA*dT*dG*dT*d[5mC]*dA*kG*eA*kA*eG) [compound 1198698] : is its pIC50 no less than 7?
Solution: Met

Exercise: Entry 1200862 (kT*kT*kT*dA*dA*mA*dG*dT*dG*dT*dA*dT*dG*kT*k[5mC]*kA; antisense) [compound 1200862] : is its pIC50 no less than 7?
Solution: Not met

Exercise: Entry 1198382 (kT*dT*dA*dG*dA*dG*dT*dA*dT*dG*dT*kG*eG*k[5mC]*eA*kA; antisense) [compound 1198382] : is its pIC50 no less than 7?
Solution: Not met

Exercise: Entry 1198557 (kA*kT*kA*dT*dT*dA*dG*dA*dG*dT*dA*dT*kG*kT*kG*eG; antisense) [compound 1198557] : is its pIC50 no less than 7?
Solution: Not met
